Target: T1, Human purified factor H (human, UniProt P08603 19-1231)
T1 construct: mature; Full length plasma-purified protein; also called FH; full length FH
T1 sequence (P08603 19-1231): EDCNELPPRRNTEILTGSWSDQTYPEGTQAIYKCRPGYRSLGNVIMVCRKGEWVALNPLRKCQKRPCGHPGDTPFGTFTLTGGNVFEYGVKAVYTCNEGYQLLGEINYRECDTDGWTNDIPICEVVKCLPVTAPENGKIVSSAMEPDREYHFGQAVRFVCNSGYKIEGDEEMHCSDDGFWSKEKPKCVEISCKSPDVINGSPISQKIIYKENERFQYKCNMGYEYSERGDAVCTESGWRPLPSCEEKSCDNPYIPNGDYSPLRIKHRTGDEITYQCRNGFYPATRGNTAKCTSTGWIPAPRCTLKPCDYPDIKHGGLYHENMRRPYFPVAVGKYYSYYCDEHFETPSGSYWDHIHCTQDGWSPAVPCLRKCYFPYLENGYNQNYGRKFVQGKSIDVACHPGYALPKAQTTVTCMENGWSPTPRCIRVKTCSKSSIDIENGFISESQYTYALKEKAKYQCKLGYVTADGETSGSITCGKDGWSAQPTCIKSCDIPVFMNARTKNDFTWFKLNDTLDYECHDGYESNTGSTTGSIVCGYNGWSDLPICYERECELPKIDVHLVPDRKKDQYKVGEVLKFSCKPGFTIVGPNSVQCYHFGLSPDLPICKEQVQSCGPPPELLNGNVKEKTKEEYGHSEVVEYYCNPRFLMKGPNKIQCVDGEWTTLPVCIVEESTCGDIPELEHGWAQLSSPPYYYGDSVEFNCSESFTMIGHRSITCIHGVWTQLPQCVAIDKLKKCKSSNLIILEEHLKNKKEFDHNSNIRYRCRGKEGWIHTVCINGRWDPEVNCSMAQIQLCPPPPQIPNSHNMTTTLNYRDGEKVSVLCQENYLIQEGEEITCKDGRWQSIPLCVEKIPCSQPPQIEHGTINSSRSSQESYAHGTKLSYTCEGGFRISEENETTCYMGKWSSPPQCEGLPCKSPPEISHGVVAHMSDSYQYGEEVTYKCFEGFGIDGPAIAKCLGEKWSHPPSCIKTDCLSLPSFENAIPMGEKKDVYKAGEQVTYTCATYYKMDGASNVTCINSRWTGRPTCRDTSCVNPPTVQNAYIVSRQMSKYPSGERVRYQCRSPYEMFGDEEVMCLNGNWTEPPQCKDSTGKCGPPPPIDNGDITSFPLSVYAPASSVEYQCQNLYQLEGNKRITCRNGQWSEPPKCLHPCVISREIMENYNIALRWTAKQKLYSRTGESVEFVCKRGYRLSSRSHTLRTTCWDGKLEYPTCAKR
Assay: SPR (BiaCore T200), antibody captured on Protein A or Protein G chip, full length FH flowed over
measured-property: koff (s⁻¹)

[[record]]
binder = "Antibody 1 (antibody, V domains shown) VH: QVQLQESGPGLVKPSQTLSLTCTVSGFSLTNYGVYWIRQHPGKGLEWIGVVWSGGTTEFNPSLKSRVTISKDTSKNQVSLKLSSVTAADTAVYYCARNFGNYAMDYWGQGTSVTVSS VL: DIQLTQSPSSLSASVGDRVTITCKASSSVTYLHWYQQKPGKAPKPLIYATSNLASGVPSRFSGSGSGTDFTLTISSLQPEDFATYYCQHRSSSNPLTFGAGTKLELK"
measured = "2.67e-05"

